Where do the numbers come from? From paper PMC6270601.

Give IC50 for every item shown.
Test system: MRC-5 normal fibroblasts
assayDetails: Antiproliferative assay (MTT reduction), MRC-5 normal lung fibroblasts
Assay type: cell-based, human
conditionSummary: Homo sapiens, MRC5, 72 h; MRC-5 normal fibroblasts; 3 days treatment, MTT reduction; mean ± SD; >100 µM considered inactive

Some compounds with known IC50 results, for comparison:
C=C1CCC2[C@](C)(CCC[C@]2(C)C(=O)O)[C@H]1CC[C@@H](C)CC(=O)OCC[C@H](C)CC[C@H]1C(=C)CCC2[C@]1(C)CCC[C@]2(C)C(=O)OC (some centres unmarked)	71.2 µM
C=C1CCC2[C@](C)(CCC[C@]2(C)C(=O)OC)[C@H]1CC[C@@H](C)CCN=[N+]=[N-] (some centres unmarked)	91.8 µM
C=C1CCC2[C@](C)(CCC[C@]2(C)C(=O)OC)[C@H]1CC[C@@H](C)CCO (some centres unmarked) [Compound 1, 15-Hydroxyimbricatolic acid methyl ester]	77.7 µM
C=C1CCC2[C@](C)(CCC[C@]2(C)C(=O)O)[C@H]1CC[C@@H](C)CC(=O)OCCc1cn(CC[C@H](C)CC[C@H]2C(=C)CCC3[C@]2(C)CCC[C@]3(C)C(=O)OC)nn1 (some centres unmarked)	79.6 µM

I need IC50 for every entry listed below, if you could help.
1. C=C1CCC2[C@](C)(CCC[C@]2(C)C(=O)OC)[C@H]1CC[C@@H](C)CCOCCCCCOCC[C@H](C)CC[C@H]1C(=C)CCC2[C@]1(C)CCC[C@]2(C)C(=O)OC (some centres unmarked)
2. C=C1CCC2[C@](C)(CCC[C@]2(C)C(=O)OC)[C@H]1CC[C@@H](C)CCOC(=O)CCC(=O)OCC[C@H](C)CC[C@H]1C(=C)CCC2[C@]1(C)CCC[C@]2(C)C(=O)OC (some centres unmarked)
3. C=C1CCC2[C@](C)(CCC[C@]2(C)C(=O)OC)[C@H]1CC[C@@H](C)CCOC(=O)c1ccccc1C(=O)OCC[C@H](C)CC[C@H]1C(=C)CCC2[C@]1(C)CCC[C@]2(C)C(=O)OC (some centres unmarked)
4. C=C1CCC2[C@](C)(CCC[C@]2(C)C(=O)OC)[C@H]1CC[C@@H](C)CCOCCCCCCCCCOCC[C@H](C)CC[C@H]1C(=C)CCC2[C@]1(C)CCC[C@]2(C)C(=O)OC (some centres unmarked)

### Response
68.1 µM
76.8 µM
76.3 µM
> 100 µM
